Hey, just so you know, these numbers are from patent US20110038894A1.

molecular target: His-tag fused human HLA-A2 heavy chain (His-HLA-A2) with His-Tag fused human β2-microglobulin (His-β2) (human); test: MHC-peptide complex formation assay: refolding of His-HLA-A2, His-β2m and peptide, sandwich ELISA (W6/32 capture, anti-β2m detection), relative to positive control peptide
observed property: Relative binding (%)
Could you give me the number in %? Just the number is fine.

-- ask Bench note: what Relative binding (%) did HIVEWNVSL (also called TAL6 154-162) [TAL6 peptide No. 11 of Table 1, HIVEWNVSL] show?
-- reply 91.1

-- ask Bench note: what Relative binding (%) did LLMLLPAFV (also called TAL6 58-66) [TAL6 peptide No. 5 of Table 1, LLMLLPAFV] show?
-- reply 134

-- ask Bench note: what Relative binding (%) did ALGGIEFIL (also called TAL6 168-176) [TAL6 peptide No. 14 of Table 1, ALGGIEFIL] show?
-- reply 113

-- ask Bench note: what Relative binding (%) did VINGVLGGI (also called TAL6 181-189) [TAL6 peptide No. 16 of Table 1, VINGVLGGI] show?
-- reply 59.1

-- ask Bench note: what Relative binding (%) did IVGGGLLML (also called TAL6 53-61) [TAL6 peptide No. 4 of Table 1, IVGGGLLML] show?
-- reply 43.4

-- ask Bench note: what Relative binding (%) did CIGHSLVGL (also called TAL6 9-17) [TAL6 peptide No. 1 of Table 1, CIGHSLVGL] show?
-- reply 93.3

-- ask Bench note: what Relative binding (%) did GLAEGPLCL (also called TAL6 114-122) [TAL6 peptide No. 10 of Table 1, GLAEGPLCL] show?
-- reply 72.4

-- ask Bench note: what Relative binding (%) did SVLAALIGI (also called TAL6 93-101) [TAL6 peptide No. 9 of Table 1, SVLAALIGI] show?
-- reply 158

-- ask Bench note: what Relative binding (%) did SILLALGGI (also called TAL6 164-172) [TAL6 peptide No. 13 of Table 1, SILLALGGI] show?
-- reply 51.8

-- ask Bench note: what Relative binding (%) did SLVGLALLC (also called TAL6 13-21) [TAL6 peptide No. 2 of Table 1, SLVGLALLC] show?
-- reply 126

-- ask Bench note: what Relative binding (%) did MLLPAFVFI (also called TAL6 60-68) [TAL6 peptide No. 6 of Table 1, MLLPAFVFI] show?
-- reply 155

-- ask Bench note: what Relative binding (%) did CLIQVINGV (also called TAL6 177-185) [TAL6 peptide No. 15 of Table 1, CLIQVINGV] show?
-- reply 26.3
